The reported numbers originate from paper PMC11344821.

test-method-notes: Particle size analysis by laser diffraction
measurement-conditions: laser diffraction, dry dispersion 3 bar, n = 3
# if measured Volume mean diameter (VMD) < 10 µm: Condition met  # else: Condition not met

Sample answers from the record:
CN[C@H](CC(C)C)C(=O)N[C@H]1C(=O)N[C@@H](CC(N)=O)C(=O)N[C@H]2C(=O)N[C@H]3C(=O)N[C@H](C(=O)N[C@H](C(=O)O)c4cc(O)cc(O)c4-c4cc3ccc4O)[C@H](O)c3ccc(c(Cl)c3)Oc3cc2cc(c3O[C@@H]2O[C@H](CO)[C@@H](O)[C@H](O)[C@H]2O[C@H]2C[C@](C)(N)[C@H](O)[C@H](C)O2)Oc2ccc(cc2Cl)[C@H]1O; Condition not met
N[C@@H](CCC(=O)O)C(=O)O [Formulation G0, L-glutamic acid]; Condition not met
N[C@@H](CCC(=O)O)C(=O)O [Formulation G1, L-glutamic acid]; Condition met
N[C@@H](CCC(=O)O)C(=O)O [Formulation G2, L-glutamic acid]; Condition met

Inquiry: Answer whether the molecule N[C@@H](CCC(=O)O)C(=O)O [Formulation G3, L-glutamic acid] has Volume mean diameter (VMD) strictly less than 10 µm
Reply text: Condition met

---

test-method-notes: Particle size analysis by laser diffraction
measurement-conditions: laser diffraction, dry dispersion 3 bar, n = 3
experimental-readout: Particle size D99 (μm)
Your answer is read as μm, so omit the unit and give the number.

Inquiry: # lookup: Particle size D99 of N[C@@H](CCC(=O)O)C(=O)O [Formulation G3, L-glutamic acid]
Reply text: 17.01

Inquiry: Report Particle size D99 for N[C@@H](CCC(=O)O)C(=O)O [Formulation G1, L-glutamic acid] please.
Reply text: 33.58

Inquiry: // lookup Particle size D99 for N[C@@H](CCC(=O)O)C(=O)O [Formulation G2, L-glutamic acid]
Reply text: 8.31

Inquiry: Would you mind telling me what Particle size D99 value was observed for N[C@@H](CCC(=O)O)C(=O)O [Formulation G0, L-glutamic acid] ?
Reply text: 70.49

---

test-method-notes: Particle size analysis by laser diffraction
measurement-conditions: laser diffraction, dry dispersion 3 bar, n = 3
Overview of reported Particle size D50 across a group of compounds:
State the result as a value with its unit after it.

As a guide, the following entries are already answered.
N[C@@H](CCC(=O)O)C(=O)O [Formulation G2, L-glutamic acid]; 1.62 μm
N[C@@H](CCC(=O)O)C(=O)O [Formulation G1, L-glutamic acid]; 7.86 μm
N[C@@H](CCC(=O)O)C(=O)O [Formulation G0, L-glutamic acid]; 22.56 μm

Now take the following compound into account.
Inquiry: Query (compound): N[C@@H](CCC(=O)O)C(=O)O [Formulation G3, L-glutamic acid] ; field requested: Particle size D50
Reply text: 3.08 μm

---

test-method-notes: Particle size analysis by laser diffraction
measurement-conditions: laser diffraction, dry dispersion 3 bar, n = 3
Here the recorded Particle size D90 is given for each entry.
# unit: μm | format: bare number

Guide cases for Particle size D90, answers given:
N[C@@H](CCC(=O)O)C(=O)O [Formulation G2, L-glutamic acid]; 5.46
N[C@@H](CCC(=O)O)C(=O)O [Formulation G0, L-glutamic acid]; 48.37
N[C@@H](CCC(=O)O)C(=O)O [Formulation G3, L-glutamic acid]; 11.63

Field: next compound
Inquiry: So what does the record say about Particle size D90 for N[C@@H](CCC(=O)O)C(=O)O [Formulation G1, L-glutamic acid] ?
Reply text: 21.15
